Assign IC50 to each entry below.
System: DU-145
Experiment: Antiproliferative activity against human DU145 cells after 48 hrs by resazurin reduction test
Type: functional, cell-based
Conditions: DU-145, 48 h
One number for each entry, in µM.

1) Nc1ccc2[nH]cc(-c3nc(N)ncc3I)c2c1 | 40
2) CC(=O)Nc1ccc(-c2cnc(N)nc2-c2c[nH]c3cc(Br)ccc23)cc1 | 20
3) COc1cccc(-c2cnc(N)nc2-c2c[nH]c3c(Br)cccc23)c1 | 33

Lab note: each molecule below needs its IC50 filled in.
1. Nc1ncc(I)c(-c2c[nH]c3c(Br)cccc23)n1
2. Nc1ncc(I)c(-c2c[nH]c3ccc([N+](=O)[O-])cc23)n1
3. Nc1ncc(I)c(-c2c[nH]c3cc([N+](=O)[O-])ccc23)n1
4. CC(=O)Nc1ccc(-c2cnc(N)nc2-c2c[nH]c3c(Br)cccc23)cc1
5. Nc1ccc2c(-c3nc(N)ncc3I)c[nH]c2c1
6. Nc1ncc(-c2ccc(C(F)(F)F)cc2)c(-c2c[nH]c3c(Br)cccc23)n1
7. Nc1ncc(I)c(-c2c[nH]c3c([N+](=O)[O-])cccc23)n1

Key:
4.2
13.3
6.3
13
26
18
5.2

* * *

Target: Cyclin-dependent kinase 5/CDK5 activator 1 (Homo sapiens)
Sequence (Q00535 whole entry): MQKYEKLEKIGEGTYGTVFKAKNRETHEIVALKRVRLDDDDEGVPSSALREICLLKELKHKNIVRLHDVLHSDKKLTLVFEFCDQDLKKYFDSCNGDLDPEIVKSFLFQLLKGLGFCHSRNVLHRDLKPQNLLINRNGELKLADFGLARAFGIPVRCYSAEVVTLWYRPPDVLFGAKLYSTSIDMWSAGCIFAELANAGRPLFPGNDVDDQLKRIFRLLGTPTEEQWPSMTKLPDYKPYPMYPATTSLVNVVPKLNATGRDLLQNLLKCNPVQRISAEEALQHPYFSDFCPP
Sequence (Q15078 whole entry, further chain): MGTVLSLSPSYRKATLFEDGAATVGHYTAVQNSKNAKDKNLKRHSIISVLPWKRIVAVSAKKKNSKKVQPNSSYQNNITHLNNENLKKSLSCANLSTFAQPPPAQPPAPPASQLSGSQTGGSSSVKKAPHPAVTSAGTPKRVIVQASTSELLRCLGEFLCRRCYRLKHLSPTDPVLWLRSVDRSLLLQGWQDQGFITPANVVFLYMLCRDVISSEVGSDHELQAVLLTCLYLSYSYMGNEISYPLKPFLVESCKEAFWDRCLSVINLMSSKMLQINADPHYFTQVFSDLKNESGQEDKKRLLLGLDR
Test: Inhibition of human recombinant CDK5/p25 using Histone H1 and [gamma32]-ATP after 30 mins by scintillation counting
quantity kind: IC50 (µM)
Numbers only, in µM.

Worked examples follow.
1) Nc1ncc(I)c(-c2c[nH]c3cc([N+](=O)[O-])ccc23)n1 | 1.6
2) Nc1ncc(I)c(-c2c[nH]c3ccccc23)n1 | 1.4
3) Nc1ncc(I)c(-c2c[nH]c3ccc(Br)cc23)n1 | 1.8
4) Nc1nccc(-c2c[nH]c3cccc(Br)c23)n1 | 10
5) Nc1nccc(-c2c[nH]c3c(Br)cccc23)n1 | 3.1

Lab note: each molecule below needs its IC50 filled in.
1. COc1cccc(-c2cnc(N)nc2-c2c[nH]c3ccc(Br)cc23)c1
2. Nc1ncc(I)c(-c2c[nH]c3ccc([N+](=O)[O-])cc23)n1

Key:
1: 7.6; 2: 1.6

* * *

Tested on: MCF7
Experiment: Antiproliferative activity against human MCF7 cells after 48 hrs by resazurin reduction test
Conditions: MCF7, 48 h
pIC50: −log10 of the molar value.
quantity kind: pIC50

1. Nc1ncc(-c2ccc(C(F)(F)F)cc2)c(-c2c[nH]c3cc(Br)ccc23)n1 | < 5.00

Lab note: each molecule below needs its pIC50 filled in.
1. Nc1ncc(I)c(-c2c[nH]c3c([N+](=O)[O-])cccc23)n1
2. Nc1ccc2c(-c3nc(N)ncc3I)c[nH]c2c1

Key:
["< 5.00", "< 5.00"]

Lab note: each molecule below needs its pIC50 filled in.
1. Nc1ncc(I)c(-c2c[nH]c3cccc([N+](=O)[O-])c23)n1
2. CC(=O)c1ccc(-c2cnc(N)nc2-c2c[nH]c3cccc(Br)c23)cc1
3. Nc1ccc2[nH]cc(-c3nc(N)ncc3I)c2c1

Key:
["< 5.00", "< 5.00", "< 5.00"]

Lab note: each molecule below needs its pIC50 filled in.
1. Nc1ncc(I)c(-c2c[nH]c3cccc(N)c23)n1
2. Nc1ncc(I)c(-c2c[nH]c3ccc([N+](=O)[O-])cc23)n1
3. COc1cccc(-c2cnc(N)nc2-c2c[nH]c3ccc(Br)cc23)c1
4. COc1cccc(-c2cnc(N)nc2-c2c[nH]c3c(Br)cccc23)c1
5. CC(=O)Nc1ccc(-c2cnc(N)nc2-c2c[nH]c3cccc(Br)c23)cc1
6. Nc1nccc(-c2c[nH]c3ccccc23)n1
7. CC(=O)c1ccc(-c2cnc(N)nc2-c2c[nH]c3ccc(Br)cc23)cc1

Key:
["< 5.00", "< 4.60", "< 4.60", "< 5.00", "< 5.00", "< 4.60", 5.38]

Lab note: each molecule below needs its pIC50 filled in.
1. Nc1ncc(I)c(-c2c[nH]c3c(Br)cccc23)n1
2. COc1cccc(-c2cnc(N)nc2-c2c[nH]c3cc(Br)ccc23)c1
3. CC(=O)Nc1ccc(-c2cnc(N)nc2-c2c[nH]c3cc(Br)ccc23)cc1
4. Nc1nccc(-c2c[nH]c3cccc(Br)c23)n1
5. Nc1ncc(-c2ccc(C(F)(F)F)cc2)c(-c2c[nH]c3c(Br)cccc23)n1
6. Nc1nccc(-c2c[nH]c3cc(Br)ccc23)n1 [MERIDIANIN D]

Key:
1: 4.77; 2: < 4.60; 3: < 5.00; 4: < 4.60; 5: < 5.00; 6: < 4.60
